Cited source for all entries: PubChem BioAssay AID1996

Conditions: buffer; pH 7.4; 200.0 µM
Parameter solubility kinetic: see the listing below.

INSERT INTO assay_data (compound, quantity_kind, recorded_result) VALUES
  ('Cc1cc(=O)[nH]c(-c2ccccc2OC(F)(F)F)n1', 'solubility kinetic', '> 40.5 µg/mL'),
  ('CCNC(=O)C1CCCN(c2nc(C)cc(C)n2)C1 (stereo unspecified)', 'solubility kinetic', '> 39.4 µg/mL'),
  ('COc1ccc(CC(=O)Oc2ccc(C#N)cc2)cc1', 'solubility kinetic', '> 40.1 µg/mL'),
  ('CCCN(CC(=O)Nc1ccccc1C)C(=O)c1cc(C)oc1C', 'solubility kinetic', '> 49.3 µg/mL'),
  ('CN(C)C(CNC(=O)c1cccs1)c1ccco1 (stereo unspecified)', 'solubility kinetic', '> 39.7 µg/mL');

Kindly consider the entry below.
QUERY: Fill in reported solubility kinetic for this entry: Cc1cc(C)cc(N2C(=O)CSC2c2ccccn2)c1 (stereo unspecified)
RESULT: > 42.7 µg/mL

* * *

Parameter solubility kinetic: see the listing below.
Conditions: buffer; pH 7.4; 200.0 µM
Form entry: value (µg/mL) — number only.

Below are worked cases with known answers.
INSERT INTO measurements (molecule, recorded_result) VALUES
  ('O=C(CN1C(=O)C2CC=CCC2C1=O)Nc1nc(-c2ccc(F)c(F)c2)cs1 (configuration not stated)', 4.8),
  ('O=C1C2C3C=CC(C3)C2C(=O)N1c1cccc2ccccc12 (configuration not stated)', 22.9);

QUERY: Fill in reported solubility kinetic for this entry: Cc1cc(C(=O)Nc2sccc2C#N)c2ccccc2n1
RESULT: 20.8

QUERY: Fill in reported solubility kinetic for this entry: O=C(N[C@@H](Cc1ccccc1)C(=O)NC1CC1)c1ccc(Cl)cc1
RESULT: 6.8

QUERY: Fill in reported solubility kinetic for this entry: Nc1nc2ccccc2cc1-c1cccs1
RESULT: 27.7

QUERY: Fill in reported solubility kinetic for this entry: Cc1cc(/C=C2/C(=O)NC(=O)N(c3ccc(Br)cc3)C2=O)c(C)n1C
RESULT: 5.3

QUERY: Fill in reported solubility kinetic for this entry: CCCC(=O)C1=C(N(C)c2ccccc2)CC(C)(C)CC1=O
RESULT: 32.5

* * *

Conditions: buffer; pH 7.4; 200.0 µM
Parameter solubility kinetic: see the listing below.

INSERT INTO assay_data (entry_smiles, recorded_result) VALUES
  ('O=C(NC1CCN(c2ncccn2)CC1)c1ccccc1Cl', '> 47.5 µg/mL'),
  ('COc1ccc(CCC(=O)NCc2ccccc2Cl)cc1OC', '> 50.1 µg/mL'),
  ('CCCOc1ccc2ccccc2c1/C=C1\SC(=O)NC1=O', '> 47 µg/mL');

Kindly consider the entry below.
QUERY: Fill in reported solubility kinetic for this entry: Cc1cccc(C)c1NC(=O)CNC(=O)C1CCCC1
RESULT: > 41.2 µg/mL

* * *

Parameter solubility kinetic: see the listing below.
Conditions: buffer; pH 7.4; 200.0 µM

Below are worked cases with known answers.
INSERT INTO results (compound, recorded_result) VALUES
  ('COc1ccc(Cl)cc1C(=O)NCCCN1CCOCC1', '> 46.9 µg/mL'),
  ('O=C1OCC2=C1C(c1ccc(F)cc1)CC(=O)N2c1ccc(F)cc1 (centres undefined)', '> 51.2 µg/mL'),
  ('Cc1ccc(C(=O)NCC(=O)N2CCCCCCC2)cc1', '42.3 µg/mL');

Kindly consider the entry below.
QUERY: Fill in reported solubility kinetic for this entry: S=C(NC1CCCCC1)N1CCCCC1
RESULT: 26.3 µg/mL
